- Tested on: Plasmodium falciparum
- test-summary: GSK_TCMDC: Inhibition of Plasmodium falciparum 3D7 in whole red blood cells, using parasite LDH activity as an index of growth. Test compounds present at 2uM
- Assay type: functional
observed-property: Inhibition (%)
Numeric only. Scale: %

molecular-string	target-desc	display-unit	Inhibition
O=C(c1ccccc1NN=C1C(=O)N(c2ccccc2)N=C1c1ccccc1)N1CCOCC1	Plasmodium falciparum	%	97
COc1ccc2nccc(N3C[C@H]4C[C@@H]3CN4CCNCc3ccc4c(n3)NC(=O)CS4)c2n1.Cl	Plasmodium falciparum	%	99
Cc1cc(N[C@@H](CC(C)C)C(=O)NCc2cccc(F)c2)nc(NCC2CCCCC2)n1.O=C(O)C(F)(F)F	Plasmodium falciparum	%	99
CC1CCN(Cc2c(O)ccc3c(CN4CCC(C)CC4)c(O)ccc23)CC1.Cl	Plasmodium falciparum	%	100
COc1cc(C)nc2ccc(NC(=O)Nc3ccc([N+](=O)[O-])cc3C)cc12	Plasmodium falciparum	%	90

For the compound CCN1CCN(c2cc(C)c3cc(NC(=O)c4cncc(Br)c4)ccc3n2)CC1 , what Inhibition is on record?
97

Please look up its Inhibition: CC1(C)NC(N)=NC(=N)N1OCc1ccc(-c2ccccc2)cc1
95

Returns the measured Inhibition for the input compound. Input: CCC/C=C/c1c(CNCCCNc2cc(=O)c3ccccc3[nH]2)sc(CC)c1Br.Cl
88

Entry O=C(Nc1ccc(Cn2ncc(N3CCCNCC3)c(Cl)c2=O)cc1)Nc1ccc(SC(F)(F)F)cc1.O=C(O)C(F)(F)F has what Inhibition?
93

* * *

- System: Plasmodium falciparum
- test-summary: GSK_TCMDC: Inhibition of Plasmodium falciparum 3D7 in whole red blood cells, using parasite LDH activity as an index of growth. Test compounds present at 2uM
- Format: functional
observed-property: Inhibition (%)
All answers are understood in %, so give the number only.

Consider the reported Inhibition for these molecules:
molecule	Inhibition [%]
Cc1cc(-c2ccc3c(c2)CCN(CCCOc2ccc4c(c2)CCN4C(=O)/C=C/c2ccccc2Cl)CC3)no1	88
Cc1cccc2nc(-c3ccc(-c4cccc(NC(=O)C(C)CN5CCN(C)CC5)c4)cc3)[nH]c12 (stereo not drawn)	98
O=C(C1CCN(c2nnnn2-c2ccccc2)CC1)N1CCc2ccccc2C1	97

Which Inhibition reading was recorded for the molecule O=C(Nc1cccc(CN2CCCN(Cc3ccccc3)CC2)c1)c1ccc(-c2ccccc2)cc1.O=C(O)C(F)(F)F ?
85

Requested read-out: Inhibition. Entry: COc1cc(Cc2cnc(N)nc2N)cc(OC)c1OCCCCCN1C(=O)c2ccccc2C1=O
97

// Inhibition lookup, key: Cc1cccc2nc(-c3ccc(-c4cccc(CNCc5cccc(N)c5)c4)s3)[nH]c12.O=C(O)C(F)(F)F
100

What Inhibition value was documented for this molecule, O=C(N[C@@H](Cc1ccccc1)C(=O)NC1CCCCC1)c1ccc(O)c(-c2cccc(C(F)(F)F)c2)c1 ?
96

Could you share which Inhibition value was measured for CC(=O)O.CC(C)c1ccc(C2CCN(CCCCNC(=O)c3ccc(NC(=O)c4ccc(C(F)(F)F)cc4)cc3)CC2)c(O)c1 ?
99

* * *

- Test system: HepG2
- test-summary: GSK_TCMDC: Percent inhibition of human HepG2 cell line. Test compounds present at 10uM.
- Assay type: functional
Threshold 8%: Inhibition strictly smaller gives True, otherwise False.

A selection of reference data follows.
compound	class-label
COc1ccc2c(N/N=C/c3cccc([N+](=O)[O-])c3)ccnc2c1	True
Cc1cccc2c3c([nH]c12)C1(CCN(Cc2ccccc2)CC1)NC(C(=O)NCc1ccccc1)C3 (stereo not given)	True
O=c1cc(NCCCNCc2ccccc2-c2ccccc2)[nH]c2ccccc12	True
N#Cc1c(-c2ccccc2)cn2c1[nH]c(=O)c1ccccc12	True

Lab note: confirm whether the reported Inhibition for this compound is below 8%, equality not counting. compound: Cc1c(S(=O)(=O)Nc2cccc(CCN3CCCCC3CCN3CCCC3)c2)sc2ccc(Cl)cc12 (stereo not given)
False

Here's an entry: Cc1ccccc1C1CCN(C2CCC(NC(=O)/C=C/c3cc(F)cc(F)c3)CC2)CC1 (stereo not given) . Is its Inhibition below 8%?
False
